EXPERIMENTAL_SYSTEM: NMDA receptor-ionophore complex (site labeled by [3H]MK-801)
PROTOCOL_DETAILS: Inhibition of [3H]MK-801 binding in rat cortical/hippocampal washed membrane preparations
EXPERIMENTAL_CONDITIONS: read-out: IC50 (μM) vs. [3H]MK-801; rat cortical/hippocampal washed membranes
Measured IC50 values are reported for all entries that follow.
ENDPOINT_NAME: IC50 (µM)

[[record]]
compound = "COc1ccccc1CC(=O)NC(CC(C)C)C(=O)NCCCCCNCCCNCCCNC(=O)C(N)CCCNC(=N)N (centres unmarked)"
endpoint_name = "IC50"
value_unit = "µM"
reported = 129

[[record]]
compound = "NCCCOCCCCOCCCNC(=O)Cc1c[nH]c2ccc(Br)cc12"
endpoint_name = "IC50"
value_unit = "µM"
reported = 28.8

[[record]]
compound = "CCC(NCCC(c1ccccc1)c1ccccc1)c1ccccc1 (centres unmarked)"
endpoint_name = "IC50"
value_unit = "µM"
reported = 14.1

[[record]]
compound = "C[C@@H](CN)C(c1cccc(F)c1)c1cccc(F)c1"
endpoint_name = "IC50"
value_unit = "µM"
reported = 0.181

[[record]]
compound = "CC(N)CC(c1cccc(Cl)c1)c1cccc(Cl)c1 (centres unmarked)"
endpoint_name = "IC50"
value_unit = "µM"
reported = 7.5

[[record]]
compound = "COc1ccccc1C(CCN)c1ccccc1OC"
endpoint_name = "IC50"
value_unit = "µM"
reported = 0.617

[[record]]
compound = "NCCC1c2cc(F)ccc2CCc2c(F)cccc21 (centres unmarked)"
endpoint_name = "IC50"
value_unit = "µM"
reported = 0.371

[[record]]
compound = "NCC=C(c1cccc(F)c1)c1cccc(F)c1"
endpoint_name = "IC50"
value_unit = "µM"
reported = 5.6

[[record]]
compound = "C[C@@H](N)CC(c1cccc(F)c1)c1cccc(F)c1"
endpoint_name = "IC50"
value_unit = "µM"
reported = 4.5

[[record]]
compound = "NCCCOCCCCOCCCNC(=O)Cc1c[nH]c2ccc(F)cc12"
endpoint_name = "IC50"
value_unit = "µM"
reported = 98

[[record]]
compound = "CCC(NCCC(c1ccccc1)c1ccccc1)c1ccccc1F (centres unmarked)"
endpoint_name = "IC50"
value_unit = "µM"
reported = 10.3


====

Measured IC50 values are reported for all entries that follow.
EXPERIMENTAL_SYSTEM: NMDA receptor-ionophore complex (site labeled by [3H]MK-801)
PROTOCOL_DETAILS: Inhibition of [3H]MK-801 binding in rat cortical/hippocampal washed membrane preparations
EXPERIMENTAL_CONDITIONS: read-out: IC50 (μM) vs. [3H]MK-801; rat cortical/hippocampal washed membranes
ENDPOINT_NAME: IC50

[[record]]
compound = "Cc1ccc(C(CCN)c2cccc(F)c2)cc1 (stereo not shown)"
reported = "5.8 µM"

[[record]]
compound = "CC(N)CC(c1cccc(F)c1)c1cccc(F)c1 (stereo not shown)"
reported = "3.45 µM"

[[record]]
compound = "CCC(NCCC(c1ccccc1)c1ccccc1)c1ccc(F)cc1 (stereo not shown)"
reported = "171 µM"

[[record]]
compound = "CN(C)CCC(c1cccc(F)c1)c1cccc(F)c1"
reported = "> 3 µM"

[[record]]
compound = "Cc1ccccc1C(CCN)c1cccc(F)c1 (stereo not shown)"
reported = "0.18 µM"

[[record]]
compound = "CC(CN)C(c1cccc(Cl)c1)c1cccc(Cl)c1 (stereo not shown)"
reported = "5.2 µM"

[[record]]
compound = "Cc1ccccc1C(CCN)c1ccccc1C"
reported = "2 µM"

